study-system: HiBiT-tagged MDM2 (Homo sapiens, UniProt Q00987)
Construct: expressed in transfected cells
Sequence (Q00987 whole entry): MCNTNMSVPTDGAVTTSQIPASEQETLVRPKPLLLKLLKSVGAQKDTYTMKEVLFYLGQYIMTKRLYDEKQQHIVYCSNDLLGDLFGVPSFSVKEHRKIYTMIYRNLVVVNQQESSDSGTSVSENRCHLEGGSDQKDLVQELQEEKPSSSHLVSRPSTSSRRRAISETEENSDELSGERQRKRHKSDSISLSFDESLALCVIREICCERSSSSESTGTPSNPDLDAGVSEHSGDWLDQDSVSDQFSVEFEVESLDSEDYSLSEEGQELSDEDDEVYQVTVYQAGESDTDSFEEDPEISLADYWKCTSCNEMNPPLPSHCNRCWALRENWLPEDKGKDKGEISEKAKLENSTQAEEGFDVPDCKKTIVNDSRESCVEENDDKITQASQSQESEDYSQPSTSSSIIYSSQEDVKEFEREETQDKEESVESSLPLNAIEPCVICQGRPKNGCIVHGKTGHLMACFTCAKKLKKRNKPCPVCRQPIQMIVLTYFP
method: MDM2 HiBit HEK293T degradation
Type: cell-based
assay-setup: HEK293T cells stably expressing C-terminally HiBiT-tagged MDM2; 4 h; read-out: MDM2 HiBit HEK293T degradation 4 h: Average external-Abs DC50
reported-metric: DC50

INSERT INTO assay_data (molecule, reading) VALUES
  ('O=C1CCN(c2cnc3cc(C4CCN(C(=O)[C@H]5CC[C@H](NC(=O)[C@@H]6NC7(CCCCC7)[C@@]7(C(=O)Nc8cc(Cl)ccc87)[C@H]6c6cccc(Cl)c6F)CC5)CC4)ccn23)C(=O)N1', '< 10 nM');

Turning now to a further molecule:
Data request: Report measured DC50; entry is Cn1c(=O)n(C2CCC(=O)NC2=O)c2ccc(CCCN3CCN(C[C@H]4CC[C@H](NC(=O)[C@@H]5NC6(CCC(C)(C)CC6)[C@@]6(C(=O)Nc7cc(Cl)ccc76)[C@H]5c5ccnc(Cl)c5F)CC4)[C@@H](C(=O)O)C3)cc21 (some centres unmarked)
Data returned: < 10 nM

----------
study-system: HiBiT-tagged MDM2 (Homo sapiens, UniProt Q00987)
Construct: expressed in transfected cells
method: MDM2 HiBit HEK293T degradation
Type: cell-based
assay-setup: HEK293T cells stably expressing C-terminally HiBiT-tagged MDM2; 4 h; read-out: MDM2 HiBit HEK293T degradation 4 h: Average external-Abs DC50
reported-metric: DC50

Some compounds with recorded DC50:
INSERT INTO measurements (compound, reading) VALUES
  ('COc1cc2c(cc1OC(C)C)[C@H](c1ccc(Cl)cc1)N(c1ccc(N(C)CCC3CCN(CCCCC#Cc4ccn5c(N6CCC(=O)NC6=O)cnc5c4)CC3)cc1)C(=O)C2 [I-51]', '10 to 100 nM'),
  ('Cn1c(=O)n(C2CCC(=O)NC2=O)c2ccc(C3CCN(C[C@H]4CC[C@H](NC(=O)[C@@H]5NC6(CCCCC6)[C@@]6(C(=O)Nc7cc(Cl)ccc76)[C@H]5c5cccc(Cl)c5F)CC4)CC3(F)F)cc21 (some centres unmarked) [I-52]', '< 10 nM'),
  ('Cn1c(=O)n(C2CCC(=O)NC2=O)c2ccc(N3CC(N4CCN(C(=O)[C@H]5CC[C@H](NC(=O)[C@@H]6NC7(CCCCC7)[C@@]7(C(=O)Nc8cc(Cl)ccc87)[C@H]6c6cccc(Cl)c6F)CC5)CC4)C3)cc21 (some centres unmarked) [I-19]', '< 10 nM'),
  ('Cn1c(=O)n(C2CCC(=O)NC2=O)c2ccc(N3CCN(C(=O)[C@H]4CC[C@H](NC(=O)[C@@H]5NC6(CCCCC6)[C@@]6(C(=O)Nc7cc(Cl)ccc76)[C@H]5c5cccc(Cl)c5F)CC4)C(C(=O)O)C3)cc21 (some centres unmarked) [I-142]', '10 to 100 nM');

Data request: Report measured DC50; entry is Cn1c(=O)n(C2CCC(=O)NC2=O)c2ccc(C3CCN(C(=O)CN4CCC(NC(=O)[C@@H]5NC6(CCC(C)(C)CC6)[C@@]6(C(=O)Nc7cc(Cl)ccc76)[C@H]5c5ccnc(Cl)c5F)CC4)CC3)cc21 (some centres unmarked) [I-160]
Data returned: < 10 nM

----------
Reported DC50 values for the following compounds.
study-system: HiBiT-tagged MDM2 (Homo sapiens)
Construct: expressed in transfected cells
method: MDM2 HiBit HEK293T degradation
Assay type: cell-based
assay-setup: HEK293T cells stably expressing C-terminally HiBiT-tagged MDM2; 4 h; read-out: MDM2 HiBit HEK293T degradation 4 h: Average external-Abs DC50

Some compounds with recorded DC50:
INSERT INTO assay_data (compound, reading) VALUES
  ('CN(C(=O)[C@H]1CC[C@H](NC(=O)[C@@H]2NC3(CCCCC3)[C@@]3(C(=O)Nc4cc(Cl)ccc43)[C@H]2c2cccc(Cl)c2F)CC1)C1CCN(Cc2ccc3c(c2)n(C)c(=O)n3C2CCC(=O)NC2=O)CC1 (some centres unmarked)', '< 10 nM'),
  ('CCOc1ccc2c(c1)NC(=O)C21[C@@H](c2cccc(Cl)c2F)[C@H](C(=O)N[C@H]2CC[C@H](C(=O)C3CCN(CCCc4ccc5c(c4)n(C)c(=O)n5C4CCC(=O)NC4=O)CC3)CC2)NC12CCCCC2 (some centres unmarked)', '< 10 nM'),
  ('CCCc1ccc2c(c1)NC(=O)[C@]21[C@@H](c2cccc(Cl)c2F)[C@H](C(=O)N[C@H]2CC[C@H](CN3CCC(c4ccc5c(c4)n(C)c(=O)n5C4CCC(=O)NC4=O)CC3)CC2)NC12CCCCC2 (some centres unmarked)', '< 10 nM'),
  ('O=C1CCN(c2cnc3c(C4CCN(C(=O)[C@H]5CC[C@H](NC(=O)[C@@H]6NC7(CCCCC7)[C@@]7(C(=O)Nc8cc(Cl)ccc87)[C@H]6c6cccc(Cl)c6F)CC5)CC4)cccn23)C(=O)N1', '< 10 nM'),
  ('Cn1c(=O)n(C2CCC(=O)NC2=O)c2cccc(C3CCN(CCN4CCC(NC(=O)[C@@H]5NC6(CCCCC6)[C@@]6(C(=O)Nc7cc(Cl)ccc76)[C@H]5c5cccc(Cl)c5F)CC4)CC3)c21 (some centres unmarked)', '< 10 nM'),
  ('Cn1c(=O)n(C2CCC(=O)NC2=O)c2ccc(C3CCN(CCN4CCN(C[C@H]5CC[C@H](NC(=O)[C@@H]6NC7(CCCCC7)[C@@]7(C(=O)Nc8cc(Cl)ccc87)[C@H]6c6cccc(Cl)c6F)CC5)[C@H](C(=O)O)C4)CC3)cc21 (some centres unmarked)', '< 10 nM'),
  ('Cn1c(=O)n(C2CCC(=O)NC2=O)c2ccc(CC[C@H]3CN(C[C@H]4CC[C@H](NC(=O)[C@@H]5NC6(CCCCC6)[C@@]6(C(=O)Nc7cc(Cl)ccc76)[C@H]5c5cccc(Cl)c5F)CC4)CCO3)cc21 (some centres unmarked)', '< 10 nM'),
  ('Cn1c(=O)n(C2CCC(=O)NC2=O)c2ccc(N3CCC(OC4CCN(C[C@H]5CC[C@H](NC(=O)[C@@H]6NC7(CCCCC7)[C@@]7(C(=O)Nc8cc(Cl)ccc87)[C@H]6c6cccc(Cl)c6F)CC5)CC4)CC3)cc21 (some centres unmarked)', '< 10 nM'),
  ('Cn1c(=O)n(C2CCC(=O)NC2=O)c2ccc(CCCC3(CC(=O)O)CCN(C(=O)[C@H]4CC[C@H](NC(=O)[C@@H]5NC6(CCCCC6)[C@@]6(C(=O)Nc7cc(Cl)ccc76)[C@H]5c5cccc(Cl)c5F)CC4)CC3)cc21 (some centres unmarked)', '100 to 1000 nM'),
  ('Cn1c(=O)n(C2CCC(=O)NC2=O)c2ccc(CC3(CC(=O)O)CCN(C[C@H]4CC[C@H](NC(=O)[C@@H]5NC6(CCCCC6)[C@@]6(C(=O)Nc7cc(Cl)ccc76)[C@H]5c5cccc(Cl)c5F)CC4)CC3)cc21 (some centres unmarked)', '10 to 100 nM');

Turning now to a further compound:
Data request: State measured DC50 of the compound Cn1c(=O)n([C@H]2CCC(=O)NC2=O)c2ccc(C3CCN(C(=O)[C@H]4CC[C@H](NC(=O)[C@@H]5NC6(CCCCC6)[C@@]6(C(=O)Nc7cc(Cl)ccc76)[C@H]5c5cccc(Cl)c5F)CC4)CC3)cc21 (single isomer, unassigned) with HiBiT-tagged MDM2 (Homo sapiens).
Data returned: < 10 nM

----------
study-system: HiBiT-tagged MDM2 (Homo sapiens)
Construct: expressed in transfected cells
method: MDM2 HiBit HEK293T degradation
Format: cell-based
assay-setup: HEK293T cells stably expressing C-terminally HiBiT-tagged MDM2; 4 h; read-out: MDM2 HiBit HEK293T degradation 4 h: Average external-Abs DC50
Reported DC50 values for the following compounds.

Some compounds with recorded DC50:
INSERT INTO results (compound, reported_metric, reading) VALUES
  ('Cn1c(=O)n(C2CCC(=O)NC2=O)c2ccc(CCCN3CCN(C[C@H]4CC[C@H](NC(=O)[C@@H]5NC6(CCCCC6)[C@@]6(C(=O)Nc7cc(Cl)ccc76)[C@H]5c5cccc(Cl)c5F)CC4)C(C(=O)O)C3)cc21 (some centres unmarked)', 'DC50', '< 10 nM'),
  ('Cn1c(=O)n(C2CCC(=O)NC2=O)c2ccc(CCCN3CCN(C(=O)[C@H]4CC[C@H](NC(=O)[C@@H]5NC6(CCCCC6)[C@@]6(C(=O)Nc7cc(Cl)ccc76)[C@H]5c5cccc(Cl)c5F)CC4)CC3)cc21 (some centres unmarked)', 'DC50', '< 10 nM'),
  ('CC(C)[C@@H](CS(=O)(=O)C(C)C)N1C(=O)[C@@](C)(CC(=O)Nc2ccc(C(=O)N3CCN(CCCc4ccc5c(c4)n(C)c(=O)n5C4CCC(=O)NC4=O)CC3)cc2)C[C@H](c2cccc(Cl)c2)[C@H]1c1ccc(Cl)cc1 (some centres unmarked)', 'DC50', '10 to 100 nM'),
  ('Cn1c(=O)n(C2CCC(=O)NC2=O)c2ccc([C@H]3CC[C@H](CN4CCC(NC(=O)[C@@H]5NC6(CCCCC6)[C@@]6(C(=O)Nc7cc(Cl)ccc76)[C@H]5c5cccc(Cl)c5F)CC4)CC3)cc21 (some centres unmarked)', 'DC50', '< 10 nM'),
  ('COc1cc2c(cc1OC(C)C)[C@H](c1ccc(Cl)cc1)N(c1ccc(N(C)C[C@H]3CC[C@H](N(CCS(C)(=O)=O)C(=O)CCCCc4ccc5c(c4)n(C)c(=O)n5C4CCC(=O)NC4=O)CC3)cc1)C(=O)C2 (some centres unmarked)', 'DC50', '10 to 100 nM');

Data request: State measured DC50 of the compound Cn1c(=O)n(C2CCC(=O)NC2=O)c2ccc(O[C@@H]3C[C@@H](C(=O)O)N(C[C@H]4CC[C@H](NC(=O)[C@@H]5NC6(CCCCC6)[C@@]6(C(=O)Nc7cc(Cl)ccc76)[C@H]5c5cccc(Cl)c5F)CC4)C3)cc21 (some centres unmarked) with HiBiT-tagged MDM2 (Homo sapiens).
Data returned: 10 to 100 nM

Data request: State measured DC50 of the compound O=C1CCN(c2cnc3cc(N4CCN(CCN5CCC(NC(=O)[C@@H]6NC7(CCCCC7)[C@@]7(C(=O)Nc8cc(Cl)ccc87)[C@H]6c6cccc(Cl)c6F)CC5)CC4)ccn23)C(=O)N1 with HiBiT-tagged MDM2 (Homo sapiens).
Data returned: 10 to 100 nM

Data request: State measured DC50 of the compound Cn1c(=O)n(C2CCC(=O)NC2=O)c2ccc(CCN3CCN(CCN4CCC(NC(=O)[C@@H]5NC6(CCCCC6)[C@@]6(C(=O)Nc7cc(Cl)ccc76)[C@H]5c5cccc(Cl)c5F)CC4)CC3)cc21 (some centres unmarked) with HiBiT-tagged MDM2 (Homo sapiens).
Data returned: < 10 nM

Data request: State measured DC50 of the compound Cn1c(=O)n(C2CCC(=O)NC2=O)c2ccc(N3CCN(CC4CCN(C[C@H]5CC[C@H](NC(=O)[C@@H]6NC7(CCCCC7)[C@@]7(C(=O)Nc8cc(Cl)ccc87)[C@H]6c6cccc(Cl)c6F)CC5)CC4)CC3)cc21 (some centres unmarked) with HiBiT-tagged MDM2 (Homo sapiens).
Data returned: < 10 nM

Data request: State measured DC50 of the compound Cn1c(=O)n(C2CCC(=O)NC2=O)c2ccc(C3=CCN(C[C@H]4CC[C@H](NC(=O)[C@@H]5NC6(CCCCC6)[C@@]6(C(=O)Nc7cc(Cl)ccc76)[C@H]5c5cccc(Cl)c5F)CC4)CC3)cc21 (some centres unmarked) with HiBiT-tagged MDM2 (Homo sapiens).
Data returned: < 10 nM

Data request: State measured DC50 of the compound Cn1c(=O)n(C2CCC(=O)NC2=O)c2ccc(C#CCC3(C(=O)O)CCN(C(=O)[C@H]4CC[C@H](NC(=O)[C@@H]5NC6(CCCCC6)[C@@]6(C(=O)Nc7cc(Cl)ccc76)[C@H]5c5cccc(Cl)c5F)CC4)CC3)cc21 (some centres unmarked) with HiBiT-tagged MDM2 (Homo sapiens).
Data returned: 10 to 100 nM

Data request: State measured DC50 of the compound CC1(C)CCC2(CC1)N[C@@H](C(=O)N[C@H]1CC[C@H](CN3CCN(CCCc4cccn5c(N6CCC(=O)NC6=O)cnc45)CC3)CC1)[C@H](c1ccnc(Cl)c1F)[C@]21C(=O)Nc2cc(Cl)ccc21 with HiBiT-tagged MDM2 (Homo sapiens).
Data returned: < 10 nM
